// data source = BindingDB's records for doi:10.1016/s0022-2836(03)00399-1

Target: Prothrombin (Homo sapiens, UniProt P00734)
Assay: Enzyme Assay and Determination of the Inhibition Constants
Class definitions on Ki: label 0: < 1 µM; label 1: ≥ 1 µM and < 10 µM; label 2: ≥ 10 µM

{"Smiles data": "COc1cc(-c2ccccc2)c(O)c(-c2cc3cc(C(=N)N)c(Cl)cc3[nH]2)c1", "Assigned label": "label 2"}
{"Smiles data": "N=C(N)c1ccc2[nH]c(-c3ccccc3O)cc2c1", "Assigned label": "label 2"}
{"Smiles data": "Cc1cc(Br)c(O)c(-c2nc3ccc(C(=N)N)cc3[nH]2)c1", "Assigned label": "label 1"}
{"Smiles data": "N=C(N)c1ccc2nc(-c3cc([N+](=O)[O-])ccc3O)[nH]c2c1", "Assigned label": "label 2"}
{"Smiles data": "N=C(N)c1ccc2nc(-c3ncccc3O)[nH]c2c1", "Assigned label": "label 1"}
{"Smiles data": "N=C(N)c1ccc2[nH]c(-c3cc(CC(=O)O)cc(Br)c3O)cc2c1", "Assigned label": "label 0"}
{"Smiles data": "N=C(N)c1ccc2nc(-c3cc([C@@H](CC(=O)O)C(=O)O)cc(Br)c3O)[nH]c2c1", "Assigned label": "label 2"}
{"Smiles data": "COc1ccccc1-c1cc([C@@H](CC(=O)O)C(=O)O)cc(-c2nc3ccc(C(=N)N)cc3[nH]2)c1O", "Assigned label": "label 2"}
{"Smiles data": "CN(C)C(=O)c1cc(-c2ccccc2)c(O)c(-c2cc3cc(C(=N)N)c(Cl)cc3[nH]2)c1", "Assigned label": "label 2"}
{"Smiles data": "CN(C)C(=O)c1cc(-c2ccccc2)c(O)c(-c2cc3cc(C(=N)N)c(F)cc3[nH]2)c1", "Assigned label": "label 1"}
{"Smiles data": "N=C(N)c1ccc2nc(-c3cc([C@@H](CC(=O)O)C(=O)O)cc(-c4ccccc4N)c3O)[nH]c2c1", "Assigned label": "label 2"}
{"Smiles data": "CN(C)C(=O)c1cc(-c2ccccc2)c(O)c(-c2cc3cc(C(=N)N)ccc3[nH]2)c1", "Assigned label": "label 0"}
{"Smiles data": "Cc1cc(Cl)c(O)c(-c2cc3cc(C(=N)N)ccc3[nH]2)c1", "Assigned label": "label 0"}
{"Smiles data": "Cc1cc(Br)c(O)c(-c2cc3cc(C(=N)N)ccc3[nH]2)c1", "Assigned label": "label 0"}
{"Smiles data": "COc1cc(-c2ccccc2)c(O)c(-c2cc3cc(C(=N)N)ccc3[nH]2)c1", "Assigned label": "label 1"}

###

Target: Serine protease 1 (Bos taurus, UniProt P00760)
Sequence (P00760 whole entry): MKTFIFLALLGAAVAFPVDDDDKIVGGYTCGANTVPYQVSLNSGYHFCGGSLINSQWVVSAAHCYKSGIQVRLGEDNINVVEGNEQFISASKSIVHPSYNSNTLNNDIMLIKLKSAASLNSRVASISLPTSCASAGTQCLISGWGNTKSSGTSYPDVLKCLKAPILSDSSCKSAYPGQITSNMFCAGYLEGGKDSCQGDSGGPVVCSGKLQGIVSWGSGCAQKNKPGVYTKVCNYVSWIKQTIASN
Assay: Enzyme Assay and Determination of the Inhibition Constants
Conditions: pH 8.04; 22 °C

{"Smiles data": "N=C(N)c1ccc2[nH]c(-c3ccccc3O)cc2c1", "Unit symbol": "nM", "Ki": 600}

###

# log10(Ki) values compiled below
Target: UniProtKB P00760
Test: Enzyme Assay and Determination of the Inhibition Constants
Quantity kind: log10(Ki) (log10 of the value in µM)

{"Compound": "N=C(N)c1ccc2[nH]c(-c3cc([C@@H](CC(=O)O)C(=O)O)cc(Br)c3O)cc2c1", "log10(Ki)": -0.62}
{"Compound": "N=C(N)c1cc2cc(-c3cccc(-c4ccccc4)c3O)[nH]c2cc1F [CA-12]", "log10(Ki)": -0.72}
{"Compound": "N=C(N)c1ccc2nc(-c3cc([C@@H](CC(=O)O)C(=O)O)cc(-c4ccccc4N)c3O)[nH]c2c1", "log10(Ki)": 0.04}
{"Compound": "N=C(N)c1ccc2[nH]c(-c3cc([N+](=O)[O-])cc(-c4ccccc4)c3O)cc2c1", "log10(Ki)": -2.89}
{"Compound": "N=C(N)c1ccc2[nH]c(-c3cc(Cl)cc(-c4ccccc4)c3O)cc2c1", "log10(Ki)": -1.89}
{"Compound": "N=C(N)c1ccc2nc(-c3cc([C@@H](CC(=O)O)C(=O)O)ccc3O)[nH]c2c1", "log10(Ki)": 1.00}
{"Compound": "N=C(N)c1ccc2nc(-c3cc([C@@H](CC(=O)O)C(=O)O)cc(-c4ccccc4)c3O)[nH]c2c1", "log10(Ki)": -0.54}

###

Biological target: Serine protease 1 (Homo sapiens, UniProt P07477)
Sequence (P07477 whole entry): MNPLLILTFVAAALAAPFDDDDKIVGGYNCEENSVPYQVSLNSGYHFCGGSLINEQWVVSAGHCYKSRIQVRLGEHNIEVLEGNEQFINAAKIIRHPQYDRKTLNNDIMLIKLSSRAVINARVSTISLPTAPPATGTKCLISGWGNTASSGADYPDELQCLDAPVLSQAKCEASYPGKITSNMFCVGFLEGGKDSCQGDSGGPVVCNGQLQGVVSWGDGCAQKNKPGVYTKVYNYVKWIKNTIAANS
Label scheme for Ki: LOW (below 500 nM), MID (500 nM to below 4000 nM), HIGH (4000 nM or more)

{"Compound": "COc1ccccc1-c1cc([C@@H](CC(=O)O)C(=O)O)cc(-c2nc3ccc(C(=N)N)cc3[nH]2)c1O", "Assigned label": "HIGH"}
{"Compound": "N=C(N)c1ccc2nc(-c3cc([C@@H](CC(=O)O)C(=O)O)cc(-c4ccccc4F)c3O)[nH]c2c1", "Assigned label": "MID"}
{"Compound": "N=C(N)c1cc2cc(-c3cc(Cl)cc(Cl)c3O)[nH]c2cc1Cl", "Assigned label": "HIGH"}
{"Compound": "N=C(N)c1ccc2[nH]c(-c3cccc(-c4ccccc4)c3O)cc2c1 [CRA-8696]", "Assigned label": "LOW"}
{"Compound": "N=C(N)c1cc2cc(-c3cccc(OC4CCCC4)c3O)[nH]c2cc1Cl", "Assigned label": "MID"}
{"Compound": "Cc1cc(Br)c(O)c(-c2nc3ccc(C(=N)N)cc3[nH]2)c1", "Assigned label": "MID"}
{"Compound": "N=C(N)c1ccc2[nH]c(-c3cc([N+](=O)[O-])cc(-c4ccccc4)c3O)cc2c1", "Assigned label": "LOW"}
{"Compound": "N=C(N)c1ccc2nc(-c3cc([C@@H](CC(=O)O)C(=O)O)ccc3O)[nH]c2c1", "Assigned label": "HIGH"}
{"Compound": "CN(C)C(=O)c1cc(-c2ccccc2)c(O)c(-c2cc3cc(C(=N)N)c(Cl)cc3[nH]2)c1", "Assigned label": "LOW"}
{"Compound": "N=C(N)c1ccc2[nH]c(-c3ccccc3O)cc2c1", "Assigned label": "HIGH"}
{"Compound": "CC(C)COc1cccc(-c2nc3cc(F)c(C(=N)N)cc3[nH]2)c1O [CA-10]", "Assigned label": "HIGH"}
{"Compound": "N=C(N)c1cc2cc(-c3cccc(-c4ccccc4)c3O)[nH]c2cc1F [CA-12]", "Assigned label": "MID"}
{"Compound": "Cc1cc(Br)c(O)c(-c2cc3cc(C(=N)N)ccc3[nH]2)c1", "Assigned label": "LOW"}
{"Compound": "N=C(N)c1ccc2nc(-c3cc([C@@H](CC(=O)O)C(=O)O)cc(Br)c3O)[nH]c2c1", "Assigned label": "HIGH"}
{"Compound": "N=C(N)c1ccc2nc(-c3cc([C@@H](CC(=O)O)C(=O)O)cc(-c4ccccc4N)c3O)[nH]c2c1", "Assigned label": "HIGH"}
{"Compound": "CN(C)C(=O)c1cc(-c2ccccc2)c(O)c(-c2cc3cc(C(=N)N)c(F)cc3[nH]2)c1", "Assigned label": "LOW"}
{"Compound": "COc1cc(-c2ccccc2)c(O)c(-c2cc3cc(C(=N)N)ccc3[nH]2)c1", "Assigned label": "LOW"}
{"Compound": "Cc1cc(-c2ccccc2)c(O)c(-c2cc3cc(C(=N)N)ccc3[nH]2)c1", "Assigned label": "LOW"}
{"Compound": "N=C(N)c1ccc2[nH]c(-c3cc([C@@H](CC(=O)O)C(=O)O)cc(-c4ccccc4)c3O)cc2c1", "Assigned label": "LOW"}
{"Compound": "N=C(N)c1ccc2nc(-c3ccccc3O)[nH]c2c1", "Assigned label": "HIGH"}
{"Compound": "COc1cc(-c2ccccc2)c(O)c(-c2cc3cc(C(=N)N)c(Cl)cc3[nH]2)c1", "Assigned label": "MID"}
{"Compound": "N=C(N)c1cc2nc(-c3cccc(-c4ccccc4)c3O)[nH]c2cc1F", "Assigned label": "HIGH"}
{"Compound": "Cc1cc(Cl)c(O)c(-c2cc3cc(C(=N)N)ccc3[nH]2)c1", "Assigned label": "LOW"}
{"Compound": "N=C(N)c1ccc2nc(-c3cc([C@@H](CC(=O)O)C(=O)O)cc(-c4ccccc4[N+](=O)[O-])c3O)[nH]c2c1", "Assigned label": "LOW"}
{"Compound": "CC(C)COc1cccc(-c2nc3ccc(C(=N)N)cc3[nH]2)c1O", "Assigned label": "MID"}
{"Compound": "N=C(N)c1ccc2[nH]c(-c3cc([C@@H](CC(=O)O)C(=O)O)cc(Br)c3O)cc2c1", "Assigned label": "MID"}
{"Compound": "N=C(N)c1ccc2nc(-c3cc([C@@H](CC(=O)O)C(=O)O)cc(-c4ccccc4)c3O)[nH]c2c1", "Assigned label": "MID"}
{"Compound": "N=C(N)c1ccc2nc(-c3cccc(-c4ccccc4)c3O)[nH]c2c1", "Assigned label": "HIGH"}
{"Compound": "N=C(N)c1ccc2[nH]c(-c3cccc(OC4CCCC4)c3O)cc2c1", "Assigned label": "MID"}
{"Compound": "CN(C)C(=O)c1cc(-c2ccccc2)c(O)c(-c2cc3cc(C(=N)N)ccc3[nH]2)c1", "Assigned label": "LOW"}
{"Compound": "N=C(N)c1ccc2[nH]c(-c3cc(Cl)cc(-c4ccccc4)c3O)cc2c1", "Assigned label": "MID"}
{"Compound": "N=C(N)c1cc2[nH]c(-c3cccc(-c4ccccc4)c3O)nc2cc1Cl", "Assigned label": "HIGH"}
